assayedTarget: Human eIF4E (aa 28-217) / biotin labeled 4G2 peptide (Homo sapiens (Human))
Sequence (P06730 28-217): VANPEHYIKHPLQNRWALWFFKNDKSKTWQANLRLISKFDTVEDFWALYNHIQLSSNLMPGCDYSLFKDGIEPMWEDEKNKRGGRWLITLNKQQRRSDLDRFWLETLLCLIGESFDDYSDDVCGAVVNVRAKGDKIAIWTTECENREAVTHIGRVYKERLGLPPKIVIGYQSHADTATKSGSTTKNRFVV
method: Human eIF4E/4G2 binding assay (TR-FRET)
runConditions: Human eIF4E/4G2 TR-FRET binding assay; head says IC50, legend says EC50
Property: IC50; scope: individual compounds

{"compoundSmiles": "CC(C)Cc1sc(N(CCC(N)=O)CCC(=O)O)nc1-c1ccc(Cl)c(Cl)c1", "IC50": "> 10 µM"}
{"compoundSmiles": "CC(C)Cc1sc(N(CCS(=O)(=O)NC(=O)CN)Cc2ccccc2)nc1-c1ccc(Cl)c(Cl)c1", "IC50": "> 10 µM"}
{"compoundSmiles": "CC(C)Cc1sc(N(CCC(=O)NCc2ncc[nH]2)Cc2ccccc2)nc1-c1ccc(Cl)c(Cl)c1", "IC50": "> 10 µM"}

====

# maps each entry to its pIC50
assayedTarget: Human eIF4E (aa 28-217) / biotin labeled 4G2 peptide (Homo sapiens (Human))
method: Human eIF4E/4G2 binding assay (TR-FRET)
runConditions: Human eIF4E/4G2 TR-FRET binding assay; head says IC50, legend says EC50
pIC50: −log10 of the molar value.

{"compound": "CC(C)Cc1sc(-c2cccc(C(=O)O)n2)nc1-c1ccc(Cl)c(Cl)c1", "pIC50": "5.00 to 6.00"}
{"compound": "CC(C)Cc1sc(NCC(Cc2ccnc(O)c2)C(=O)O)nc1-c1ccc(Cl)c(Cl)c1 (stereo not shown)", "pIC50": "5.00 to 6.00"}
{"compound": "CC(C)c1sc(Nc2ncc(-c3cccs3)cc2C(=O)O)nc1-c1ccc(Cl)c(C(F)(F)F)c1", "pIC50": "≥ 6.00"}
{"compound": "COc1ccccc1CC(CNc1nc(-c2ccc(Cl)c(Cl)c2)c(C2CC2)s1)C(=O)O (stereo not shown)", "pIC50": "5.00 to 6.00"}
{"compound": "CC(C)Cc1sc(Nc2ncc(-c3cccs3)cc2C(=O)O)nc1-c1ccc(OCC(N)=O)c(Cl)c1", "pIC50": "≥ 6.00"}
{"compound": "CC(C)Cc1sc(N(CCC(=O)O)Cc2ccccc2)nc1-c1ccc(Cl)cc1", "pIC50": "5.00 to 6.00"}
{"compound": "COCCOc1ccc(-c2nc(Nc3ncc(-c4cccs4)cc3C(=O)O)sc2CC(C)C)cc1Cl", "pIC50": "≥ 6.00"}
{"compound": "Cc1noc(CN(CCC(=O)O)c2nc(-c3ccc(Cl)c(Cl)c3)c(CC(C)C)s2)n1", "pIC50": "5.00 to 6.00"}
{"compound": "CC(C)Cc1sc(N2CCN(c3ccccc3)C(C(=O)O)C2)nc1-c1ccc(Cl)c(Cl)c1 (stereo not shown)", "pIC50": "5.00 to 6.00"}
{"compound": "COc1ccccc1CC(CNc1nc(-c2ccc(Cl)c(Cl)c2)c(C(C)C)s1)C(=O)O (stereo not shown)", "pIC50": "≥ 6.00"}
{"compound": "CC(C)Cc1sc(N(CCC(=O)O)Cc2ccccc2)nc1-c1ccc2[nH]ccc2c1", "pIC50": "5.00 to 6.00"}
{"compound": "CC(C)Cc1sc(Nc2ncc(-c3cccs3)cc2C(=O)O)nc1-c1ccc(OCCO)c(Cl)c1", "pIC50": "≥ 6.00"}
{"compound": "COc1cccc(-c2nc(NCC(Cc3ccccc3OC)C(=O)O)sc2C(C)C)c1 (stereo not shown)", "pIC50": "5.00 to 6.00"}

====

assayedTarget: Human eIF4E (aa 28-217) / biotin labeled 4G2 peptide (Homo sapiens (Human))
method: Human eIF4E/4G2 binding assay (TR-FRET)
runConditions: Human eIF4E/4G2 TR-FRET binding assay; head says IC50, legend says EC50
Method: Example 5. Compound Testing in Human eIF4E/4G2 Binding Assay Human eIF4E (aa 28-217) with a C-terminal His-tag was expressed in E. coli in inclusion bodies. The protein was solubilized with 8 M urea and purified under denaturing conditions using nickel-charged HisTrap HP columns (GE Healthcare). […] Assay signals were monitored by reading excitation at 340 nm and emission fluorescence at 615 nm and 665 nm on an Envision reader (Perkin Elmer). […] IC50 values were calculated using xLFit program (IDBS). […]
Listing: IC50 of selected compounds
parameterMeasured: IC50

{"compound": "CC(C)Cc1sc(NCC(NC(=O)c2ccccc2)C(=O)O)nc1-c1ccc(Cl)c(Cl)c1 (stereo not shown) [I-136]", "assayedTarget": "Human eIF4E (aa 28-217) / biotin labeled 4G2 peptide (Homo sapiens (Human))", "parameterMeasured": "IC50", "result": "1000 to 10000 nM"}
{"compound": "CC(C)Cc1sc(N(CCC(=O)O)CC2CCCCC2)nc1-c1ccc(Cl)c(Cl)c1 [I-87]", "assayedTarget": "Human eIF4E (aa 28-217) / biotin labeled 4G2 peptide (Homo sapiens (Human))", "parameterMeasured": "IC50", "result": "≤ 1000 nM"}
{"compound": "CC(C)c1sc(Nc2ncc(C3CC3)cc2C(=O)O)nc1-c1ccc(Cl)c(Cl)c1 [I-283]", "assayedTarget": "Human eIF4E (aa 28-217) / biotin labeled 4G2 peptide (Homo sapiens (Human))", "parameterMeasured": "IC50", "result": "≤ 1000 nM"}
{"compound": "CC(C)Cc1sc(N(CCC(=O)O)CCC2CC2)nc1-c1ccc(Cl)c(Cl)c1 [I-106]", "assayedTarget": "Human eIF4E (aa 28-217) / biotin labeled 4G2 peptide (Homo sapiens (Human))", "parameterMeasured": "IC50", "result": "1000 to 10000 nM"}
{"compound": "CC(C)Cc1sc(NCC(Cc2cccc(S(N)(=O)=O)c2)C(=O)O)nc1-c1ccc(Cl)c(Cl)c1 (stereo not shown) [I-173]", "assayedTarget": "Human eIF4E (aa 28-217) / biotin labeled 4G2 peptide (Homo sapiens (Human))", "parameterMeasured": "IC50", "result": "1000 to 10000 nM"}
{"compound": "CC(C)Cc1sc(Nc2nccc(Cl)c2C(=O)O)nc1-c1ccc(Cl)c(Cl)c1 [I-242]", "assayedTarget": "Human eIF4E (aa 28-217) / biotin labeled 4G2 peptide (Homo sapiens (Human))", "parameterMeasured": "IC50", "result": "≤ 1000 nM"}
{"compound": "CC(C)Cc1sc(Nc2cc(F)cc(C(=O)O)c2)nc1-c1ccc(Cl)c(Cl)c1 [I-212]", "assayedTarget": "Human eIF4E (aa 28-217) / biotin labeled 4G2 peptide (Homo sapiens (Human))", "parameterMeasured": "IC50", "result": "≤ 1000 nM"}
{"compound": "CC(C)Cc1sc(NCC(Cc2ccc(S(C)(=O)=O)cc2)C(=O)O)nc1-c1ccc(Cl)c(Cl)c1 (stereo not shown) [I-175]", "assayedTarget": "Human eIF4E (aa 28-217) / biotin labeled 4G2 peptide (Homo sapiens (Human))", "parameterMeasured": "IC50", "result": "1000 to 10000 nM"}
{"compound": "CC(C)Cc1sc(N2CCN(C(=O)Nc3ccccc3)C(C(=O)O)C2)nc1-c1ccc(Cl)c(Cl)c1 (stereo not shown) [I-252]", "assayedTarget": "Human eIF4E (aa 28-217) / biotin labeled 4G2 peptide (Homo sapiens (Human))", "parameterMeasured": "IC50", "result": "≤ 1000 nM"}
{"compound": "COc1cccc(-c2nc(NCC(CCc3ccccc3)C(=O)O)sc2C(C)C)c1 (stereo not shown) [I-33]", "assayedTarget": "Human eIF4E (aa 28-217) / biotin labeled 4G2 peptide (Homo sapiens (Human))", "parameterMeasured": "IC50", "result": "1000 to 10000 nM"}
{"compound": "CC(C)c1sc(Nc2ccsc2C(=O)NCCN)nc1-c1ccc(Cl)c(Cl)c1 [I-277]", "assayedTarget": "Human eIF4E (aa 28-217) / biotin labeled 4G2 peptide (Homo sapiens (Human))", "parameterMeasured": "IC50", "result": "1000 to 10000 nM"}
{"compound": "COc1cccc(-c2nc(NCC(Cc3cccc4cc[nH]c34)C(=O)O)sc2C(C)C)c1 (stereo not shown) [I-34]", "assayedTarget": "Human eIF4E (aa 28-217) / biotin labeled 4G2 peptide (Homo sapiens (Human))", "parameterMeasured": "IC50", "result": "1000 to 10000 nM"}
{"compound": "CC(C)c1sc(NCC(CCc2ccccc2)C(=O)O)nc1-c1ccc(Cl)cc1 (stereo not shown) [I-43]", "assayedTarget": "Human eIF4E (aa 28-217) / biotin labeled 4G2 peptide (Homo sapiens (Human))", "parameterMeasured": "IC50", "result": "1000 to 10000 nM"}
{"compound": "CC(C)Cc1sc(N(CCC(=O)N2CCNCC2)Cc2ccccc2)nc1-c1ccc(Cl)c(Cl)c1 [I-134]", "assayedTarget": "Human eIF4E (aa 28-217) / biotin labeled 4G2 peptide (Homo sapiens (Human))", "parameterMeasured": "IC50", "result": "1000 to 10000 nM"}
{"compound": "COCc1sc(N(CCC(=O)O)Cc2ccccc2)nc1-c1ccc(Cl)c(Cl)c1 [I-120]", "assayedTarget": "Human eIF4E (aa 28-217) / biotin labeled 4G2 peptide (Homo sapiens (Human))", "parameterMeasured": "IC50", "result": "1000 to 10000 nM"}
{"compound": "O=C(O)C(CNc1nc(-c2ccc(Cl)c(Cl)c2)c(C2CC2)s1)Cc1ccccc1 (stereo not shown) [I-11]", "assayedTarget": "Human eIF4E (aa 28-217) / biotin labeled 4G2 peptide (Homo sapiens (Human))", "parameterMeasured": "IC50", "result": "1000 to 10000 nM"}
{"compound": "CC(C)Cc1sc(NCC(CCCCN)C(=O)O)nc1-c1ccc(Cl)c(Cl)c1 (stereo not shown) [I-125]", "assayedTarget": "Human eIF4E (aa 28-217) / biotin labeled 4G2 peptide (Homo sapiens (Human))", "parameterMeasured": "IC50", "result": "> 10000 nM"}
{"compound": "CC(C)Cc1sc(N(CCCCN)CCC(=O)O)nc1-c1ccc(Cl)c(Cl)c1 [I-146]", "assayedTarget": "Human eIF4E (aa 28-217) / biotin labeled 4G2 peptide (Homo sapiens (Human))", "parameterMeasured": "IC50", "result": "> 10000 nM"}
{"compound": "COc1cccc(-c2nc(NCC(Cc3cccc4c3OCO4)C(=O)O)sc2C(C)C)c1 (stereo not shown) [I-29]", "assayedTarget": "Human eIF4E (aa 28-217) / biotin labeled 4G2 peptide (Homo sapiens (Human))", "parameterMeasured": "IC50", "result": "1000 to 10000 nM"}
{"compound": "CC(C)c1sc(NCC(Cc2ccccc2)C(=O)O)nc1-c1ccc(Cl)c(Cl)c1 (stereo not shown) [I-1]", "assayedTarget": "Human eIF4E (aa 28-217) / biotin labeled 4G2 peptide (Homo sapiens (Human))", "parameterMeasured": "IC50", "result": "≤ 1000 nM"}
{"compound": "CC(C)Cc1sc(Nc2ccc(-c3ccccc3)cc2C(=O)O)nc1-c1ccc(Cl)c(Cl)c1 [I-235]", "assayedTarget": "Human eIF4E (aa 28-217) / biotin labeled 4G2 peptide (Homo sapiens (Human))", "parameterMeasured": "IC50", "result": "≤ 1000 nM"}
{"compound": "CC(C)Cc1sc(N(CCCCCC(N)=O)CCC(=O)O)nc1-c1ccc(Cl)c(Cl)c1 [I-149]", "assayedTarget": "Human eIF4E (aa 28-217) / biotin labeled 4G2 peptide (Homo sapiens (Human))", "parameterMeasured": "IC50", "result": "> 10000 nM"}
{"compound": "O=C(O)C(CNc1nc(-c2ccc(Cl)c(Cl)c2)c(CC2CC2)s1)Cc1ccccc1 (stereo not shown) [I-179]", "assayedTarget": "Human eIF4E (aa 28-217) / biotin labeled 4G2 peptide (Homo sapiens (Human))", "parameterMeasured": "IC50", "result": "1000 to 10000 nM"}
{"compound": "CC(C)Cc1sc(Nc2cc(C(=O)O)ccn2)nc1-c1ccc(Cl)c(Cl)c1 [I-222]", "assayedTarget": "Human eIF4E (aa 28-217) / biotin labeled 4G2 peptide (Homo sapiens (Human))", "parameterMeasured": "IC50", "result": "1000 to 10000 nM"}
{"compound": "CC(C)Cc1sc(N2CCN(C(=O)OC(C)C)C(C(=O)O)C2)nc1-c1ccc(Cl)c(Cl)c1 (stereo not shown) [I-253]", "assayedTarget": "Human eIF4E (aa 28-217) / biotin labeled 4G2 peptide (Homo sapiens (Human))", "parameterMeasured": "IC50", "result": "1000 to 10000 nM"}

Value source: patent US11753403B2
